test system: RXF 393; assay: NCI tumour cell line growth inhibition, 48 h
Activity calls are given as the source filed them. Rule as the data show it: active = GI50 up to about 1.1 µM and inactive = higher.
The reply should be one of these categories: true (active), false (inactive)

These recorded examples may help you get a feel for the data.
In: Look up the recorded call for CC(C)CSCC1OC(n2cnc3c(N)nccc32)C(O)C1O (stereo unspecified) in this test.
Out: false

In: Look up the recorded call for `CC(=O)O[C@H]1C[C@H]2[C@@H]([C@H](OC(C)=O)C[C@@H]3CC4(CC[C@@]32C)OOC2(CCCCC2)OO4)[C@@H]2CC[C@H]([C@H](C)CCC(=O)O)[C@@]12C` in this test.
Out: false

In: Look up the recorded call for `COCCCNc1nc(N)c(C#N)c(C#N)c1C#N` in this test.
Out: false

Further cases:
In: Look up the recorded call for `COC(=O)[C@@H](COC(=O)/C=C/c1ccc(OC(C)=O)c(OC(C)=O)c1)NC(=O)/C=C/c1ccc(OC(C)=O)c(OC(C)=O)c1` in this test.
Out: false

In: Look up the recorded call for `COC(=O)C(CCCCN)NC(C)=O.Cc1ccc(C(=O)Nc2ccc(S(=O)(=O)O)c3cc(S(=O)(=O)O)cc(S(=O)(=O)O)c23)cc1NC(=O)c1cccc(NC(=O)Nc2cccc(C(=O)Nc3cc(C(=O)Nc4ccc(S(=O)(=O)O)c5cc(S(=O)(=O)O)cc(S(=O)(=O)O)c45)ccc3C)c2)c1` in this test.
Out: false

In: Look up the recorded call for COc1cc2c(cc1OC)C1C=NC(C(=O)O)(C2)c2ccccc21 (stereo unspecified) in this test.
Out: false

In: Look up the recorded call for CCC(CCCN)Nc1cc(OC)cc2c(C)ccnc12 (stereo unspecified) in this test.
Out: false

In: Look up the recorded call for `C1=N\CCOCC/N=C\c2ccc(cc2)OCc2cccc(n2)COc2ccc/1cc2` in this test.
Out: false

In: Look up the recorded call for CC(C)=CC1CC(C)C2(CCC3(C)CC4C(C(=O)CC4(C)O)/C(C=O)=C\CC32)O1 (stereo unspecified) in this test.
Out: true

In: Look up the recorded call for `COC(=O)c1ccccc1Nc1nc(-c2cccs2)nc2cc(OC)c(OC)cc12` in this test.
Out: false

In: Look up the recorded call for `CN(C)C(=S)/N=c1\ssc(=S)n1C1CCCCC1` in this test.
Out: false

---

test system: LOX IMVI; assay: NCI tumour cell line growth inhibition, 48 h
The source made the active and inactive calls. No stated cut-off is given here; in the data, active = GI50 up to about 1.1 µM and inactive = higher.
The reply should be one of these categories: active, inactive

In: Look up the recorded call for `S=C(N/N=C\C=N/NC(=S)N1CCCCC1)N1CCCCC1` in this test.
Out: active

In: Look up the recorded call for `CON(C)c1nc(N(C)OC)nc(N(C)OC)n1` in this test.
Out: inactive

In: Look up the recorded call for `CCOC(=O)/C=C(/C(=O)OCC)n1cnc2c(=O)[nH]c(NC(C)=O)nc21` in this test.
Out: inactive

In: Look up the recorded call for `CC(=O)Nc1sc([N+](=O)[O-])cc1S(=O)(=O)c1ccc(Cl)cc1` in this test.
Out: inactive

In: Look up the recorded call for `Cc1cc2c(cc1Cl)SC(N/N=C(\N)c1ccc(Cl)cc1)=NS2(=O)=O` in this test.
Out: inactive

In: Look up the recorded call for COc1ccc(C(C#N)NC23CC4CC(CC(C4)C2)C3)cc1 (stereo not given) in this test.
Out: inactive

In: Look up the recorded call for C=CCOC(=O)C1=C(C)N=C2N[C@H](CCCCCCCCC)C[C@@H]3CCC1N23 (stereo not given in full) in this test.
Out: inactive

In: Look up the recorded call for O=C1NCC2=C1CCC1c3ccccc3CCN21 (stereo not given) in this test.
Out: inactive

In: Look up the recorded call for O=CC(O)C(O)C(O)C(O)C(=O)NCCCCCCCCCCCCNC(=O)C(O)C(O)C(O)C(O)C=O (stereo not given) in this test.
Out: inactive

Shifting focus to the molecule that follows.
In: Look up the recorded call for `CC1(C)N=C(N)N=C(N)N1c1cccc(OCCOc2ccc([N+](=O)[O-])cc2)c1` in this test.
Out: inactive

---

Catalogue of GI50 readings, one per entry.
test system: SK-OV-3; assay: NCI tumour cell line growth inhibition, 48 h
The source made the active and inactive calls. Rule as the data show it: active = GI50 up to about 1.1 µM and inactive = higher.

Solved entries (count: 3):
In: Input `CCOc1ccc(NC(=O)c2c(N/N=C/c3ccc(OC)cc3)nc(=O)[nH]c2C)cc1` , output reported GI50.
Out: 33.6 µM (inactive)

In: Input `CC(=O)c1cc2c(s1)C(=O)c1ccsc1C2=O` , output reported GI50.
Out: 1.87 µM (inactive)

In: Input CC(C)=CCC/C(C)=C/CCC1(C)C2COC(=O)C21 (stereo unspecified) , output reported GI50.
Out: > 100 µM (inactive)

# evaluate next
In: Input COc1cc2c(cc1OC)C1C=NC(C(=O)O)(C2)c2ccccc21 (stereo unspecified) , output reported GI50.
Out: > 100 µM (inactive)

---

system: ACHN; test: NCI tumour cell line growth inhibition, 48 h
Active and inactive are the calls of the source. Cut-off read from the data, not from the text of the source: active = GI50 up to about 1.1 µM and inactive = higher. *1 amine or outer side, *2 acyl side, *3 side chain or, on linkers, in order; H or OH if unused. Where a SMILES comes first, the peptide text is derived from it. Bridges are numbered along the chain shown (N, C = ends). Roman numbers before positions name the chains, in order. [ ]: non-standard residue; d: D form. Actinocin(9to1) = Cc1c2oc3c(C)ccc(C(=O)[*:1])c3nc-2c(C(=O)[*:2])c(N)c1=O; Hyp = O=C(O)[CH]1C[CH](O)CN1; NMeV = CN[CH](C(=O)O)C(C)C; Sar = CNCC(=O)O
The reply should be one of these categories: 1.0 (active), 0.0 (inactive)

In: Look up the recorded call for `COc1ccccc1NC(=O)CC(=O)n1nc(C)c(/N=N/c2ccccc2Cl)c1C` in this test.
Out: 0.0

In: Look up the recorded call for `CCCC[C@H]1CCN2C[C@@H](O)[C@@H](O)[C@H]2[C@@H]1O` in this test.
Out: 0.0

In: Look up the recorded call for COc1ccc(NC(=O)CC(=O)N2N=C(N3c4ccccc4Sc4ccccc43)CC2c2ccccc2)cc1 (configuration not stated) in this test.
Out: 0.0

Further cases:
In: Look up the recorded call for `CCOC(=O)c1nc2c(Cl)c3ncccc3cc2[nH]c1=O` in this test.
Out: 0.0

In: Look up the recorded call for `O/N=N/c1ccc(-c2ccccc2)cn1` in this test.
Out: 0.0

In: Look up the recorded call for Cc1c2oc3c(C)ccc(C(=O)NC4C(=O)NC(C(C)C)C(=O)N5CC(O)CC5C(=O)N(C)CC(=O)N(C)C(C(C)C)C(=O)OC4C)c3nc-2c(C(=O)NC2C(=O)NC(C(C)C)C(=O)N3CC(O)CC3C(=O)N(C)CC(=O)N(C)C(C(C)C)C(=O)OC2C)c(N)c1=O (configuration not stated) (I: TV[Hyp][Sar][NMeV] / II: TV[Hyp][Sar][NMeV]; ester I:1-I:C, II:1-II:C; linker I:N-II:N via Actinocin(9to1); configuration not given here) in this test.
Out: 1.0

In: Look up the recorded call for `CCCCCCCCCCCCCCNCC(OCC)OCC` in this test.
Out: 0.0

---

tested on: LXFL 529; experiment: NCI tumour cell line growth inhibition, 48 h
Activity calls are given as the source filed them. No stated cut-off is given here; in the data, active = GI50 up to about 1.1 µM and inactive = higher.
Catalogue of GI50 readings, one per entry.

Solved entries (count: 4):
In: Fill: GI50 (LXFL 529) for this compound `CC(=O)O[C@H]1[C@@H]2[C@@H]3[C@@H](C[C@H]1C)[C@@H](C)CO[C@@]1(C)CC/C=C(/C)C[C@@H]2O[C@@H]31`
Out: > 100 µM (inactive)

In: Fill: GI50 (LXFL 529) for this compound `CCOc1ccccc1NC(=O)C(=O)Cc1nc2ccccc2s1`
Out: > 100 µM (inactive)

In: Fill: GI50 (LXFL 529) for this compound `COc1ccc(NC(=O)CC/C(CC(=O)c2ccco2)=N/NC(N)=S)cc1`
Out: > 100 µM (inactive)

In: Fill: GI50 (LXFL 529) for this compound `Cc1cccc2[s+]snc12`
Out: 36.1 µM (inactive)

Further cases:
In: Fill: GI50 (LXFL 529) for this compound O=C1/C(=C/c2cc(O)c(O)c(O)c2)Oc2cc(O)cc(OC3OC(CO)C(O)C(O)C3O)c21 (stereo not given)
Out: 14.6 µM (inactive)

In: Fill: GI50 (LXFL 529) for this compound `N#C/C(=C1\N=NC(N)=C(c2ccc(Cl)cc2)C1=O)c1ccc(Cl)cc1`
Out: > 100 µM (inactive)

In: Fill: GI50 (LXFL 529) for this compound `Cn1ccnc1CCc1ccc(Cl)cc1Cl`
Out: > 100 µM (inactive)

In: Fill: GI50 (LXFL 529) for this compound CC[C@@H]1OC2(C)CC(S(=O)(=O)c3ccccc3O)CC1O2 (stereo not given in full)
Out: > 100 µM (inactive)

In: Fill: GI50 (LXFL 529) for this compound `CCN(CC)CCNC(=O)c1nn(-c2ccc(Cl)cc2)c2c1CCc1cc(OC)ccc1-2`
Out: 4.74 µM (inactive)

In: Fill: GI50 (LXFL 529) for this compound N#CC(/C(CCC(=O)Nc1ccc(Cl)cc1)=N/NC(=O)c1cc2ccccc2cc1O)c1ccccc1 (stereo not given)
Out: 43 µM (inactive)

Numbers sourced from ChEMBL document CHEMBL1201862.
